Tested on: HaCaT cells
Experiment: Relief of 5-FU proliferative toxicity to HaCaT cells (CCK-8 cell survival)
Assay type: cell-based
Settings: 5-Fu 20 μM; selected compound final concentration 3.13 μM; HaCaT cells
Quick list: Cell Survival Rate (increased percentage of cell survival compared with the Group of 5-FU) per entry.

Sample records with Cell Survival Rate (increased percentage of cell survival compared with the Group of 5-FU):
1. CC1=C(CC(=O)OC[C@H]2O[C@@H](n3cc(C)c(=O)[nH]c3=O)C[C@@H]2O)c2cc(F)ccc2/C1=C\c1ccc([S+](C)[O-])cc1 (some centres unmarked)    45%-52%
2. Cc1cn([C@H]2C[C@H](O)[C@@H](COC(=O)C(C)c3cccc(C(=O)c4ccccc4)c3)O2)c(=O)[nH]c1=O (some centres unmarked)    39%-49%
3. Cc1ccc(C(=O)c2ccc(CC(=O)O[C@H]3C[C@H](n4cc(C)c(=O)[nH]c4=O)O[C@@H]3CO)n2C)cc1    63%-70%
4. COc1ccc2cc([C@H](C)C(=O)O[C@H]3C[C@H](n4cc(C)c(=O)[nH]c4=O)O[C@@H]3CO)ccc2c1    85%-93%

Give the measured Cell Survival Rate (increased percentage of cell survival compared with the Group of 5-FU) of CCC(CC)COC(=O)[C@H](C)N[P@](=O)(OC[C@H]1O[C@@H](n2cc(C)c(=O)[nH]c2=O)C[C@@H]1O)Oc1ccccc1 .
41%-48%

Give the measured Cell Survival Rate (increased percentage of cell survival compared with the Group of 5-FU) of Cc1cn([C@H]2C[C@H](OC(=O)C(C)c3cccc(Oc4ccccc4)c3)[C@@H](COC(=O)C(C)c3cccc(Oc4ccccc4)c3)O2)c(=O)[nH]c1=O (some centres unmarked) .
27%-34%

Give the measured Cell Survival Rate (increased percentage of cell survival compared with the Group of 5-FU) of CC(=O)Oc1ccccc1C(=O)OC[C@H]1O[C@@H](n2cc(C)c(=O)[nH]c2=O)C[C@@H]1O .
61%-69%

Give the measured Cell Survival Rate (increased percentage of cell survival compared with the Group of 5-FU) of Cc1cn([C@H]2C[C@H](O)[C@@H](COC(=O)[C@H](C)c3ccc(CC(C)C)cc3)O2)c(=O)[nH]c1=O .
35%-41%

Give the measured Cell Survival Rate (increased percentage of cell survival compared with the Group of 5-FU) of Cc1ccc(Nc2c(F)cccc2Cl)c(CC(=O)OC[C@H]2O[C@@H](n3cc(C)c(=O)[nH]c3=O)C[C@@H]2O)c1 .
42%-48%

Give the measured Cell Survival Rate (increased percentage of cell survival compared with the Group of 5-FU) of Cc1cn([C@H]2C[C@H](O)[C@@H](COC(=O)C(C)c3ccc(CC(C)C)cc3)O2)c(=O)[nH]c1=O (some centres unmarked) .
39%-47%

Give the measured Cell Survival Rate (increased percentage of cell survival compared with the Group of 5-FU) of Cc1cn([C@H]2C[C@H](O)[C@@H](COC(=O)Cc3ccccc3Nc3c(Cl)cccc3Cl)O2)c(=O)[nH]c1=O .
64%-71%
